From: patent US20210380703A1

Consider the following binders and their measured Phospho-SMAD3 Human Skeletal Muscle GDF8 readings.
System under test: ACVR2A on primary human myotubes (human, UniProt P27037 20-513)
Sequence (P27037 20-513): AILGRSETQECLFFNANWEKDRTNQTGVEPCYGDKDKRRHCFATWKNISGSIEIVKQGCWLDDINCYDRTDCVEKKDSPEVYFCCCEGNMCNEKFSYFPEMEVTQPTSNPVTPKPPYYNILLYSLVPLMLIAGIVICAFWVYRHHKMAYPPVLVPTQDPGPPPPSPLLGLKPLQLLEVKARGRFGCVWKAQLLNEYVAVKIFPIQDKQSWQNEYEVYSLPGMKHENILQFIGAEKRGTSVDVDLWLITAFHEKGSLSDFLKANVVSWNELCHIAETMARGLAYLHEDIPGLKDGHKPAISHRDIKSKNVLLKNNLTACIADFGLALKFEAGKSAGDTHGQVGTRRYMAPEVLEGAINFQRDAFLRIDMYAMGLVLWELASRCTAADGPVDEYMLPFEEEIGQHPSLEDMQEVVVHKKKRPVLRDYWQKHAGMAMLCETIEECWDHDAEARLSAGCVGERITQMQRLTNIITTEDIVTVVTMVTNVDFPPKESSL
Measurement notes: cell-based or functional assay
Format: numeric value only, no unit, no commentary.

Worked cases, Phospho-SMAD3 Human Skeletal Muscle GDF8 given:
Request: Using known records, supply Phospho-SMAD3 Human Skeletal Muscle GDF8 for 373_C02 (antibody, V domains shown) VH: EVQLLESGGGLVQPGGSLRLSCAASGFTFDDYSMNWVRQAPGKGLEWVSGINYNSGYKGYADSVKGRFTISRDNSKNTLYLQMNSLRAEDTAVYYCARSANWHDTALDYWGQGTLVTVSS VL: DIQMTQSPSSLSASVGDRVTITCRASQSILSYVNWYQQKPGKAPKLLIYAATSRASGVPSRFSGSGSGTDFTLTISSLQPEDFATYYCQQSYNTPLTFGGGTKVEIK
Result: 0.0083

Request: Using known records, supply Phospho-SMAD3 Human Skeletal Muscle GDF8 for 370_H01 (antibody, V domains shown) VH: EVQLLESGGGLVQPGGSLRLSCAASGFTFSSYSMNWVRQAPGKGLEWVSGINYNSGYKGYADSVKGRFTISRDNSKNTLYLQMNSLRAEDTAVYYCARSANWHDTALDYWGQGTLVTVSS VL: DIQMTQSPSSLSASVGDRVTITCRASQSIISYLNWYQQKPGKAPKLLIYAVTSRASGVPSRFSGSGSGTDFTLTISSLQPEDFATYYCQQSYDTPLTFGGGTKVEIK
Result: 0.0093

Continue with the next binder.
Request: Using known records, supply Phospho-SMAD3 Human Skeletal Muscle GDF8 for 374_C06 (antibody, V domains shown) VH: EVQLLESGGGLVQPGGSLRLSCAASGFTFDDYSMNWVRQAPGKGLEWVSSINYNSGYKGYADSVKGRFTISRDNSKNTLYLQMNSLRAEDTAVYYCARSANWHDTALDYWGQGTLVTVSS VL: DIQMTQSPSSLSASVGDRVTITCRASQSILTYVNWYQQKPGKAPKLLIYAATSRASGVPSRFSGSGSGTDFTLTISSLQPEDFATYYCQQSYNSPLTFGGGTKVEIK
Result: 0.0138
